Target: PI3K alpha (Homo sapiens, UniProt P42336)
Construct: p85(iSH2) fusion partner (see partner chain) (N); His tag (C); Tn5 (Trichoplusia ni) or TiniPro insect cells
Sequence (P42336 with tags, fused parts or gaps limits assumed): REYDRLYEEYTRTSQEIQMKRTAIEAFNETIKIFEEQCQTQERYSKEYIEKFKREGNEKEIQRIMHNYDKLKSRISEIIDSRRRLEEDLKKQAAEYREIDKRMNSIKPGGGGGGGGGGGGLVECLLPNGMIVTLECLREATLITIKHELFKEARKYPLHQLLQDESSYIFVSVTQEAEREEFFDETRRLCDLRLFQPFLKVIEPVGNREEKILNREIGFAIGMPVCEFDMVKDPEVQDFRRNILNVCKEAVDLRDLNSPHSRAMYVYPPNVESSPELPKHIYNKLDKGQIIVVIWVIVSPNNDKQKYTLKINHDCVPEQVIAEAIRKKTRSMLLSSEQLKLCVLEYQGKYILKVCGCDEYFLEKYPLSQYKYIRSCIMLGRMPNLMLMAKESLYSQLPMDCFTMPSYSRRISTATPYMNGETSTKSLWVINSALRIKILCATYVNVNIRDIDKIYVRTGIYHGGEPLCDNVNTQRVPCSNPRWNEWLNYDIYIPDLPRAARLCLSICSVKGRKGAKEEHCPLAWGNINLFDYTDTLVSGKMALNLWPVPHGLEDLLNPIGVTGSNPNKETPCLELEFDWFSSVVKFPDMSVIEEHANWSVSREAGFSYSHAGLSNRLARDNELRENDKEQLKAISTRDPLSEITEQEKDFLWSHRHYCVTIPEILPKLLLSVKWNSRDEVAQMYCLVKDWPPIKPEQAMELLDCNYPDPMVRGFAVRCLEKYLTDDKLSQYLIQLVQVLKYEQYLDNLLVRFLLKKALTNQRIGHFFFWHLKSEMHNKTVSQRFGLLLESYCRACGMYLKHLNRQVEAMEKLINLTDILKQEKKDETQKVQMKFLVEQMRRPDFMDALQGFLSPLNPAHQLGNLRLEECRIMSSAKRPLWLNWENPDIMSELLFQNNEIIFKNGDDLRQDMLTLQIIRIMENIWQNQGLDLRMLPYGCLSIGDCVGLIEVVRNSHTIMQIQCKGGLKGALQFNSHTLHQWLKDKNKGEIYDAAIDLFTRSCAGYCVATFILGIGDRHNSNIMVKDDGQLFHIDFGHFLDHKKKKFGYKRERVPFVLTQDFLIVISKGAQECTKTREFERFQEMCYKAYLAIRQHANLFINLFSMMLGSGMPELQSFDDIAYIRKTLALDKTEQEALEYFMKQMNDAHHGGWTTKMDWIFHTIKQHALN
Assay: PI3K alpha kinase assay (Kinase-Glo luminescence)
readout-label: IC50 (nM)

Use the examples below as a reference point.
[
  {
    "molecule": "CCNc1cc(-c2ccc3ncc4c(c3c2)n(-c2cn(C)nc2Cl)c(=O)n4C)cnc1C [Example 87.2]",
    "study-system": "PI3K alpha (Homo sapiens, UniProt P42336)",
    "IC50, nM": 30
  },
  {
    "molecule": "CCc1ncc(-c2ccc3ncc4c(c3c2)n(-c2cn(C)nc2C)c(=O)n4C)cc1O [Example 188]",
    "study-system": "PI3K alpha (Homo sapiens, UniProt P42336)",
    "IC50, nM": 9
  }
]

[I] COc1ccc(-c2ccc3ncc4c(c3c2)n(-c2cn(C)nc2C)c(=O)n4C)cc1OC [Example 1.8]
[II] CCOc1ccc(-c2ccc3ncc4c(c3c2)n(-c2cn(CC(=O)N(C)CC)nc2C)c(=O)n4C)cn1 [Example 136]
[III] CCn1cc(-n2c(=O)n(C)c3cnc4ccc(-c5cncc(OC(C)C)c5)cc4c32)c(C)n1 [Example 58.4]
Problem: Give the ascending ranking of the items by reported IC50. Lab note: record answer as labels in requested order.
Result: I, III, II
(I: 6 nM, III: 14 nM, II: 25 nM)

----------
Molecular target: PI3K beta (Homo sapiens)
Construct: for the full-length p110-b subunit are generated and fused by overlapping PCR; p85(iSH2) fusion partner (see partner chain) (N); His tag (C); Tn5 (Trichoplusia ni) or TiniPro insect cells
Sequence (P42338 with tags, fused parts or gaps limits assumed): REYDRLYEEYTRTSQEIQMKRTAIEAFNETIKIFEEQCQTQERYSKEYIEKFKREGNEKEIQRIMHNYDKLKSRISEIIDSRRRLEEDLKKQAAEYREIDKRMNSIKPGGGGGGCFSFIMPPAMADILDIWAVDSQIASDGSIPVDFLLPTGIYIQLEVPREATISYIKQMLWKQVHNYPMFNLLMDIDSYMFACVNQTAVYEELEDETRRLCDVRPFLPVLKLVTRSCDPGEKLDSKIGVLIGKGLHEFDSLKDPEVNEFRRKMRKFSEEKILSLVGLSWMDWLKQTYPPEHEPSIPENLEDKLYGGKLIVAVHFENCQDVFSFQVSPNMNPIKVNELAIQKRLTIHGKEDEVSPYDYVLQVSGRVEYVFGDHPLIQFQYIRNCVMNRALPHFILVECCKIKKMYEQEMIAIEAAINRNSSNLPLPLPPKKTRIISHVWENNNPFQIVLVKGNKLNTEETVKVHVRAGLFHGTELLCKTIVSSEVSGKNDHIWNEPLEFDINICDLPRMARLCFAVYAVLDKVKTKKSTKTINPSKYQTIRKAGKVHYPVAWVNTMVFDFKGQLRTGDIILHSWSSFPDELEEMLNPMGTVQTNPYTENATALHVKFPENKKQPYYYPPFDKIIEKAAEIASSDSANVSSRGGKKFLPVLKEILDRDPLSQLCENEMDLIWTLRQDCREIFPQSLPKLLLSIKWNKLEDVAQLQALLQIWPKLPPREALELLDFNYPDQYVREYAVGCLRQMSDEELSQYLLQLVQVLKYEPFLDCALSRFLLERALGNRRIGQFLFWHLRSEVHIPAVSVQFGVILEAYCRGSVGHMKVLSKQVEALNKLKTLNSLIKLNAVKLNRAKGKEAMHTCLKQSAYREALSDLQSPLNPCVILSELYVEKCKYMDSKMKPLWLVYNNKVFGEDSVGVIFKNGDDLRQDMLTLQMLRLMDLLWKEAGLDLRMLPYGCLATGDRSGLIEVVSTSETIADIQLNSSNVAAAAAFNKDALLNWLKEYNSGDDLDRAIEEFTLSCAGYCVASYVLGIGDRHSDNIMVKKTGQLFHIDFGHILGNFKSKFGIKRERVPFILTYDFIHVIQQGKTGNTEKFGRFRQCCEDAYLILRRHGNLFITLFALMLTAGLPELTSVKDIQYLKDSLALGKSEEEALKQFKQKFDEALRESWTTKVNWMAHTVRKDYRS
Assay: PI3K beta kinase assay (Kinase-Glo luminescence)
readout-label: IC50 (nM)

[
  {
    "smiles": "Cc1nn(C)cc1-n1c(=O)n(C)c2cnc3ccc(-c4cncc(OC(C)C)c4)cc3c21",
    "readout-label": "IC50",
    "assay-result": 7
  },
  {
    "smiles": "Cc1nn(C(C)C)cc1-n1c(=O)n(C)c2cnc3ccc(-c4cnc(N(C)C)nc4)cc3c21",
    "readout-label": "IC50",
    "assay-result": 227
  }
]

[I] COCCOc1cncc(-c2ccc3ncc4c(c3c2)n(-c2cn(C)nc2C)c(=O)n4C)c1
[II] CCN(C)c1cc(-c2ccc3ncc4c(c3c2)n(-c2cn(C)nc2C)c(=O)n4C)cnc1C
[III] COc1ccc(-c2ccc3ncc4c(c3c2)n(-c2cc(C)nn2C)c(=O)n4C)cc1OC
[IV] COc1ncc(-c2ccc3ncc4c(c3c2)n(-c2cn(C)nc2C)c(=O)n4C)cc1C#N
[V] Cc1nn(C)cc1-n1c(=O)n(C)c2cnc3ccc(-c4ccc(N)nc4)cc3c21
Problem: Order each entry by recorded IC50, climbing from the minimum. Give the labels in the order specified.
Result: II, V, I, IV, III

----------
System: PKB Ser473 phosphorylation in Rat1-myr-HA-p110 alpha cells
Assay: Reverse protein array assay, PKB Ser473 phosphorylation in Rat1-myr-p110 alpha cells
Format: cell-based
Conditions: 0.5 h, pAkt Ser473, 30 minutes compound incubation, read-out: p-PKB IC50
pIC50: −log10 of the molar value.
readout-label: pIC50

[a] Cc1nn(C)cc1-n1c(=O)n(C)c2cnc3ccc(-c4ccc(NC5CCOCC5)nc4)cc3c21 [Example 214]
[b] Cn1nccc1-n1c(=O)n(C)c2cnc3ccc(-c4ccc(C(F)(F)F)nc4)cc3c21 [Example 8.1]
Problem: Exercise: compare a and b ; which one has the greater pIC50? Record your answer as the label of the chosen record.
Result: a
(a: 6.55, b: 6.23)

[a] COc1cc(-c2ccc3ncc4c(c3c2)n(-c2cn(C)nc2C)c(=O)n4C)cnc1OC [Example 204]
[b] Cc1nn(C)cc1-n1c(=O)n(C)c2cnc3ccc(-c4cnc5[nH]ccc5c4)cc3c21 [Example 36]
Problem: Which entry shows the lesser value of pIC50 here, a or b ? Please identify the chosen entry by its label.
Result: a
